Every entry's value here was drawn from paper PMC9352680.

measurement-target: T1, PUF4 RNA-binding domain (Saccharomyces cerevisiae, UniProt P25339 537-888)
T1 sequence: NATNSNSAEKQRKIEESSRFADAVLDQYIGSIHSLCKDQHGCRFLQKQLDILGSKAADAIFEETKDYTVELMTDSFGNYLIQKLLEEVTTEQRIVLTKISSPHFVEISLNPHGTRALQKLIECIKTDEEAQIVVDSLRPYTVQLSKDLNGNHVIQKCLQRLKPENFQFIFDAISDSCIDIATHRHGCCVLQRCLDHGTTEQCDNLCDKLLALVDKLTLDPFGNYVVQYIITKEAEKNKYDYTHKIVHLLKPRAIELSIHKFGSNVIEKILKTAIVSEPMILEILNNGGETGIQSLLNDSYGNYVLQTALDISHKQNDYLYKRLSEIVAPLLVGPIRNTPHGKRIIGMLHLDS
assay-text: Mg; RNA-MaP; 20 mM Na-HEPES pH 7.4, 30 mM KOAc, 0.75 mM MgCl2, 0.1% Tween-20, 5% glycerol, 0.1 mg/mL BSA, 2 mM DTT; 25 C; 0.0125-409.6 nM protein
assay-setup: tags: N-His6-TEV cleaved; C-SNAP kept, Cy3B-labelled; label: tethered on chip by stalled RNA polymerase
Consider the following binders; for each one, report its log10(Kd).
Plainly stated, the numbers are log10 of Kd given in nM.

These recorded examples may help you get a feel for the data.
binder	recorded-result
Id_ii_S4_P5E.4_K5.3_C5.2_[C-2G]_[T-1C]_H5.3_A5.1_F5.1_T5.2_[T11A]_[A12T] (ssRNA) RNA: UUUGACAACUGAUCGUUCUUUCUGCACACUUAUUAAUUUCUUUCUCGAUCAGUUGUCUUU	2.75
UCUCUUUGUAAUGUUUCUCUU (ssRNA) [Ic_S1_P4E.1_K4.1_C4.1_H4.1_A4.1_[T5A]_[A6T]_[T7G]_F4.1_[A9T]_T4.1]	1.98
Id_ii_S4_P3E.3_K3.2_C3.2_[C-2T]_[T-1G]_H3.2_A3.1_F3.1_T3.2_[T9A]_[A10T] (ssRNA) RNA: UUUGACAACUGAUCGUUCUUUCUUGUAUAUAUAAUUUCUUUCUCGAUCAGUUGUCUUU	0.26
UCUCUUUGUACCCAUUCUCUU (ssRNA) [Ic_S1_P4E.1_K4.1_C4.1_H4.1_A4.1_[T5C]_[A6C]_[T7C]_F4.1_[T8A]_[A9T]_T4.1]	2.71
UCUCUUCUUGUACUAUAUAUCUCUU (ssRNA) [Ie_S1_P3E.2_K3.1_C3.2_H3.1_[+4C]_A3.1_F3.1_T3.2]	0.18

Continue with the binder presented below.
Would you kindly share the measured log10(Kd) for UCUCUUCGUAUAUAUUAAGUCUCUU (ssRNA) [Id_ii_S1_P4E.3_K4.2_C4.2_[T-1G]_H4.2_A4.1_F4.1_T4.2_[G10A]_[T11G]] ?
2.00
